tested on: GBM8401; assay: MTT assay, GBM8401 tumor cell; conditions: concentration 10 μM, tumor cell
Label 1 when Cell survival rate (%) GBM8401 is strictly below 40%; at or above that, label 0.

Smiles Entry	Test Target	Category Label
CCN(CC)C(=O)CSc1nc2ccc3c(c2[nH]1)C(=O)c1ccccc1C3=O	GBM8401	1
O=C1c2ccccc2C(=O)c2c1ccc1nc(SCCCCCBr)[nH]c21	GBM8401	0
O=C1c2ccccc2C(=O)c2c1ccc1nc(SCCN3CCOCC3)[nH]c21	GBM8401	1
C=CCSc1nc2ccc3c(c2[nH]1)C(=O)c1ccccc1C3=O	GBM8401	0
CCCCSc1nc2ccc3c(c2[nH]1)C(=O)c1ccccc1C3=O	GBM8401	0

----------
tested on: UACC-62; experiment: NCI 60-cell drug screen, Melanoma UACC-62; format: cell-based, human; conditions: 1.00E−5 Molar
Measured Endpoint: Growth Percent, UACC-62 (%)

Compound	Assay Result
CCSc1nc2ccc3c(c2[nH]1)C(=O)c1ccccc1C3=O [f1-1]	47.64
O=C1c2ccccc2C(=O)c2c1ccc1nc(SCCN3CCCC3)[nH]c21 [f1-11]	80.95
O=C1c2ccccc2C(=O)c2c1ccc1nc(S)[nH]c21 [f1-0]	84.17
O=C1c2ccccc2C(=O)c2c1ccc1nc3n(c21)CCS3 [f3-1]	73.06
CN(C)CCCSc1nc2ccc3c(c2[nH]1)C(=O)c1ccccc1C3=O [f1-15]	75.39
CCCSc1nc2ccc3c(c2[nH]1)C(=O)c1ccccc1C3=O [f1-2]	51.07

----------
tested on: GBM8401; assay: MTT assay, GBM8401 tumor cell; settings: concentration 10 μM, tumor cell
Attribute: Cell survival rate (%) GBM8401
Measured Endpoint: Cell survival rate (%) GBM8401

Compound	Assay Result
O=C(CCc1ccccc1)Sc1nc2ccc3c(c2[nH]1)C(=O)c1ccccc1C3=O [f2-4]	62
CCCSc1nc2ccc3c(c2[nH]1)C(=O)c1ccccc1C3=O [f1-2]	62
CN(C)CCCSc1nc2ccc3c(c2[nH]1)C(=O)c1ccccc1C3=O [f1-15]	8
CCCN(CCC)C(=O)CSc1nc2ccc3c(c2[nH]1)C(=O)c1ccccc1C3=O [f1-23]	82
O=C1c2ccccc2C(=O)c2c1ccc1nc(SCCC(=O)N3CCCC3)[nH]c21 [f1-22]	40
O=C1c2ccccc2C(=O)c2c1ccc1nc(SCC(=O)N3CCCC3)[nH]c21 [f1-21]	30
O=C1c2ccccc2C(=O)c2c1ccc1nc(SC(=O)N3CCCCC3)[nH]c21 [f2-8]	99
O=C1c2ccccc2C(=O)c2c1ccc1nc(SCC(=O)N3CCOCC3)[nH]c21 [f1-16]	30
O=C1c2ccccc2C(=O)c2c1ccc1nc(SCCN3CCCCC3)[nH]c21 [f1-12]	6
O=C1c2ccccc2C(=O)c2c1ccc1nc(S)[nH]c21 [f1-0]	86
CN1CCN(C(=O)Sc2nc3ccc4c(c3[nH]2)C(=O)c2ccccc2C4=O)CC1 [f2-3]	62
COC(=O)/C=C/CSc1nc2ccc3c(c2[nH]1)C(=O)c1ccccc1C3=O [f1-6]	82
O=C1c2ccccc2C(=O)c2c1ccc1nc(SCCC(=O)N3CCOCC3)[nH]c21 [f1-17]	23

----------
tested on: A549/ATCC; assay: NCI 60-cell drug screen, Non-Small Cell Lung Cancer A549/ATCC; type: cell-based, human; conditions: 1.00E−5 Molar
Label 1 when Growth Percent, A549/ATCC is strictly below 60%; at or above that, label -1.

Smiles Entry	Test Target	Category Label
O=C1c2ccccc2C(=O)c2c1ccc1nc(S)[nH]c21	A549/ATCC	-1
CCSc1nc2ccc3c(c2[nH]1)C(=O)c1ccccc1C3=O	A549/ATCC	-1
O=C1c2ccccc2C(=O)c2c1ccc1nc3n(c21)CCS3	A549/ATCC	-1
CN(C)CCCSc1nc2ccc3c(c2[nH]1)C(=O)c1ccccc1C3=O	A549/ATCC	1
O=C1c2ccccc2C(=O)c2c1ccc1nc(SCCN3CCCC3)[nH]c21	A549/ATCC	1

// data source = patent US8067454B2
